Where these numbers come from: patent US10590106B2

Biological target: BRAF (Homo sapiens (Human))
Sequence (P15056 whole entry): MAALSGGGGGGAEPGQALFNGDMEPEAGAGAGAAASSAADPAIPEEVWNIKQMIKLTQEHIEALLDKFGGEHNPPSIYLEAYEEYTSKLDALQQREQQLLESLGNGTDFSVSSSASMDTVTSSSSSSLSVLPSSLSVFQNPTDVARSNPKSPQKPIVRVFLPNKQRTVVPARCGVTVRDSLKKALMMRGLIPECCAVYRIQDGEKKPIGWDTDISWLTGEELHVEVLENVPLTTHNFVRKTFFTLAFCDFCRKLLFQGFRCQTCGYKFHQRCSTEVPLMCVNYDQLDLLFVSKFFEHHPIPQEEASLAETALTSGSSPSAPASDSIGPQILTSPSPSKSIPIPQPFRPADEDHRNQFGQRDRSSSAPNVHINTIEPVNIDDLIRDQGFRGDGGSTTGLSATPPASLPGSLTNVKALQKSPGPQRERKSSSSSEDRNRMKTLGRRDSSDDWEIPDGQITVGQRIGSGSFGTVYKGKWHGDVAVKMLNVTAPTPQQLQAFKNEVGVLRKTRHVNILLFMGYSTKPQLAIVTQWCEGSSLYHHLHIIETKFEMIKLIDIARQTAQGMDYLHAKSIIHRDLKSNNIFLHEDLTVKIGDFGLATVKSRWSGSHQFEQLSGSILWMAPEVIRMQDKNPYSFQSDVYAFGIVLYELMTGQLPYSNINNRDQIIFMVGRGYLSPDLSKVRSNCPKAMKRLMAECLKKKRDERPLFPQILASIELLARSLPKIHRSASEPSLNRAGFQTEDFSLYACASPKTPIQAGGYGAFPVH
Test: Inhibitory activity against kinase BRAF, Z'-LYTE method (Invitrogen)
Format: biochemical
Conditions: 1 μM compound
Method: Inhibitory activities Inhibitory activities of compounds against BRAF, and BRAF V600E were measured by Invitrogen using Z′-LYTE® Method as briefly described in the following. 4× Test compounds are dissolved in 1% DMSO. […] Fluorescence was read by plate reader. IC50 was calculated by plotting the concentration of compound vs the percentage of inhibition in treated wells using GraphPad Prism 5. […]
Entries and their inhibition at 1 µM

O=C(Nc1ccc(Oc2ccc3ncc(N4CCNCC4)nc3c2)cc1)Nc1ccc(C(F)(F)F)cc1
< 70%
O=C(Nc1cccc(Oc2ccc3nccnc3c2)c1)Nc1cccc(C(F)(F)F)c1
< 70%
O=C(Nc1cccc(Oc2ccc3nccnc3c2)c1)c1ccc(Cl)c(C(F)(F)F)c1
< 70%
O=C(Nc1ccc(Oc2ccc3nccnc3c2)cc1)Nc1cccc(C(F)(F)F)c1
< 70%
O=C(Nc1cccc(Oc2ccc3ncc(N4CCNCC4)nc3c2)c1)Nc1ccc(Cl)c(C(F)(F)F)c1
> 89%

Q: Tell me its inhibition at 1 µM given O=C(Nc1cccc(Oc2ccc3ncc(N4CCNCC4)nc3c2)c1)Nc1cccc(C(F)(F)F)c1 as the entry.
Ans: > 89%

Q: Give recorded inhibition at 1 µM. O=C(Nc1ccc(Cl)cc1)Nc1ccc(Oc2ccc3ncc(N4CCNCC4)nc3c2)cc1
Ans: > 89%

Q: # return recorded inhibition at 1 µM for entry O=C(Nc1cccc(Oc2ccc3nccnc3c2)c1)c1cccc(C(F)(F)F)c1
Ans: 70 to 89%

Q: Indicate its recorded inhibition at 1 µM; the compound in question is O=C(Nc1cccc(Cl)c1)Nc1ccc(Oc2ccc3nccnc3c2)cc1F
Ans: 70 to 89%

Q: Give me measured inhibition at 1 µM, please, for this compound: O=C(Nc1cc(F)cc(Oc2ccc3ncc(N4CCOCC4)nc3c2)c1)c1cccc(C(F)(F)F)c1
Ans: < 70%

Q: Supply measured inhibition at 1 µM of O=C(Nc1ccc(Cl)cc1)Nc1ccc(Oc2ccc3nccnc3c2)cc1F in your reply.
Ans: < 70%

Q: Determine from records and report inhibition at 1 µM for O=C(Nc1ccc(Oc2ccc3ncc(N4CCNCC4)nc3c2)cc1)Nc1ccc(Cl)c(C(F)(F)F)c1
Ans: < 70%

Q: For the compound O=C(Nc1cccc(C(F)(F)F)c1)Nc1ccc(F)c(Oc2ccc3ncc(N4CCNCC4)nc3c2)c1 , give its reported inhibition at 1 µM.
Ans: > 89%

Q: Annotate the compound O=C(Nc1ccc(Cl)c(F)c1)Nc1ccc(F)c(Oc2ccc3ncc(N4CCNCC4)nc3c2)c1 with its measured inhibition at 1 µM.
Ans: > 89%

Q: Give the measured inhibition at 1 µM for O=C(Nc1cccc(Oc2ccc3ncc(N4CCOCC4)nc3c2)c1)Nc1ccc(Cl)c(C(F)(F)F)c1
Ans: 70 to 89%
